Where do these numbers come from? They come from patent US20250034165A1.

Target: EGFR (d746-750/T790M/C797S) (Homo sapiens (Human), UniProt P00533, C797S/DEL746-750/T790M)
Sequence (P00533 other isoform, or with tags, fused parts or gaps T790M/C797S/del 1-694/del 746-750 limits assumed): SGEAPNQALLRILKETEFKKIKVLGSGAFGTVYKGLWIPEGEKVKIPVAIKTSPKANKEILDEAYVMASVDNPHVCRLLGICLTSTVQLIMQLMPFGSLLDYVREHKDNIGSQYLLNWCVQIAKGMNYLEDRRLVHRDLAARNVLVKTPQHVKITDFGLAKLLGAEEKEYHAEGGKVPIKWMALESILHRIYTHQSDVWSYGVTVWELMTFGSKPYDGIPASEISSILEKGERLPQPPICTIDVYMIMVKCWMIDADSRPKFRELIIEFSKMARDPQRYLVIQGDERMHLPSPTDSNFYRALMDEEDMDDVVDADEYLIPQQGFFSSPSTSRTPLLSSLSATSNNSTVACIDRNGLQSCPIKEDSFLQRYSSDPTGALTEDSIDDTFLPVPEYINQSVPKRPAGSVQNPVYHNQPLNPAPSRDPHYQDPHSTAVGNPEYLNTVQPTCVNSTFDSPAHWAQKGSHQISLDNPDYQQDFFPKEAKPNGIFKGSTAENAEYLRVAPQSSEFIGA
Test: Inhibitory activity for EGFR (d746-750/T790M/C797S) kinase
Details: ATP 5 μM; read-out: EGFR(d19/T790M/C797S) (IC50)
measurement.kind: IC50
Field: value (include unit after the number)

Quick one: IC50 of Cc1cc2cc(n1)-c1cnn(C)c1OCCC[C@@H](C1CC1)CN1/C(=N/C2=O)Nc2cc(N[C@H](C)CN3CCCCC3)ccc21 ?
0.085 nM

Quick one: IC50 of Cc1cc2cc(n1)-c1cnn(C)c1OCCC[C@@H](C1CC1)CN1/C(=N/C2=O)Nc2cc(N[C@H]3C[C@H](N(C)C)C3)ccc21 ?
0.073 nM

Quick one: IC50 of Cc1cc2cc(n1)-c1cnn(C)c1OCCC[C@@H](C1CC1)CN1/C(=N/C2=O)Nc2cc(N[C@H](C)CCN3CCCCC3)ccc21 ?
0.076 nM
